All figures here come from patent US20220324970A1.

- target.system: T1, human pIgR, full-length, on cells (human, UniProt P01833 19-764)
- T1 construct: whole, on cells; Used for the flow cytometry EC50 values (MDCK-hpIgR) and for the transcytosis read-outs; also called hpIgR; cell-surface hpIgR
- T1 sequence (P01833 19-764): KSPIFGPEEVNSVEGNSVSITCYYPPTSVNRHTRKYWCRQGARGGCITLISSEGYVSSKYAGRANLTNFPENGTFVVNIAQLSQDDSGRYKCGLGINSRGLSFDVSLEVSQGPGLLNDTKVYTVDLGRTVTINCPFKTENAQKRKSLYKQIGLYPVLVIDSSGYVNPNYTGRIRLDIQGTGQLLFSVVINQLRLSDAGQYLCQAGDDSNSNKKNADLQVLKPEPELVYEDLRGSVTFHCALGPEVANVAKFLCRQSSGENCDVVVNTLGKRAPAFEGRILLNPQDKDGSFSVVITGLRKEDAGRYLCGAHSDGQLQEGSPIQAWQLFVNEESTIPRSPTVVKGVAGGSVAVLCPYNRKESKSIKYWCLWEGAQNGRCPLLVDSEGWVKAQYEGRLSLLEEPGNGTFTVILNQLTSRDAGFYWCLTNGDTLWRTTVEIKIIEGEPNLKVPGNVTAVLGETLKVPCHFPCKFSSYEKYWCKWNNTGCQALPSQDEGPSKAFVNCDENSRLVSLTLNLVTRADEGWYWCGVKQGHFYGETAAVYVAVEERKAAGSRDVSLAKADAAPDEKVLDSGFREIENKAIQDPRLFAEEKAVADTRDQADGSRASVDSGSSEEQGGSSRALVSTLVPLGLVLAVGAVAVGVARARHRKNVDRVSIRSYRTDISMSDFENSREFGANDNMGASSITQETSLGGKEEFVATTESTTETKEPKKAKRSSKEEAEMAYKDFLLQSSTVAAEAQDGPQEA
- assay.text: flow cytometry on MDCK-hpIgR cells; summary table, repeats Table 1
property: pEC50
Scale note: pEC50 = -log10(concentration in M).

binder="VHH10-linker-mono-Fc protein (Fc fusion, made in CHO cells; also called VHH10-mono-Fc; hpIgR_225) EVQVVESGGGLVQAGGSLRLSCAASGFTFTRYAMGWFRQAPGKERSFVAAISWSGSSAGYGDSVKGRFTISRDNAKNTLYLQMNSLKPEDTAVYYCAADPFNQGYWGQGTQVTVSSEPKTPKPQPQPQLQPQPNPTTESKSPKSPAPELLGGPSVFLFPPKPKDTLMISRTPEVTCVVVDVSHEDPEVKFNWYVDGVEVHNAKTKPREEQYNSTYRVVSVLTVLHQDWLNGKEYKCKVSNKALPAPIEKTISKAKGQPREPQVYTKPPSREEMTKNQVSLSCLVKGFYPSDIAVEWESNGQPENNYKTTVPVLDSDGSFRLASYLTVDKSRWQQGNVFSCSVMHEALHNHYTQKSLSLSPGK" property=pEC50 value_reported=7.69

Attention now shifts to the item below.
State, in one line, measured pEC50 of VHH11-linker-mono-Fc protein (Fc fusion, made in CHO cells; also called VHH11-mono-Fc; hpIgR_250) EVQVVESGGGLVQAGGSLRLSCAASGRTFTTYRMGWFRQAPGKEREFVAAIRWSGGRTLYADSVKGRFTISRDNAKNTAYLQMNNLRPEDTAVYYCAADLAEYSGTYSSPADSPAGYDYWGQGTQVTVSSEPKTPKPQPQPQLQPQPNPTTESKSPKSPAPELLGGPSVFLFPPKPKDTLMISRTPEVTCVVVDVSHEDPEVKFNWYVDGVEVHNAKTKPREEQYNSTYRVVSVLTVLHQDWLNGKEYKCKVSNKALPAPIEKTISKAKGQPREPQVYTKPPSREEMTKNQVSLSCLVKGFYPSDIAVEWESNGQPENNYKTTVPVLDSDGSFRLASYLTVDKSRWQQGNVFSCSVMHEALHNHYTQKSLSLSPGK 8.82
